Each recorded value in this set is attributed to the supplement of paper PMC9399229.

- Tested on: Hep3B
- assay_method_text: relative cell viability (CellTiter-Glo), compound plus cabozantinib, relative to the cabozantinib arm (arm median 1.05; reference not stated) (fraction); higher = more viable cells (less growth inhibition)
- particulars: cabozantinib 2 µM; 4 days
Where a name gives a salt, the structure may show the parent alone. Whole data set: some 1,900 compounds, median “relative cell viability (CellTiter-Glo), compound plus cabozantinib, relative to the cabozantinib arm (arm median 1.05; reference not stated)” near 1.1, cut for the lowest 2% near 0.15. For the sample, the lowest values were picked, then their nearest neighbours and some compounds at random.
Please provide measured relative cell viability for the entries that follow.
Answers are plain numbers.

// solved cases for relative cell viability follow
Cc1cccc(C)c1NC(=O)C1CCCCN1C (stereo not drawn) [Mepivacaine HCl] :: 1.03
Cc1csc(-c2nnc(Nc3ccc(Oc4ncccc4-c4ccnc(N)n4)cc3)c3ccccc23)c1 :: 1
CCOc1cc(N2CCC(O)CC2)ccc1Nc1ncc2c(n1)N(C)c1ccccc1C(=O)N2C :: 1.09
COC(=O)CC[C@H](NC(=O)[C@H](CC(=O)OC)NC(=O)OCc1ccccc1)C(=O)N[C@H](C(=O)N[C@@H](CC(=O)OC)C(=O)CF)C(C)C :: 1.09
C[C@@H](Nc1cc(F)cc(F)c1)c1cc(C(=O)N(C)C)cc2c(=O)cc(N3CCOCC3)oc12 :: 0.998

Look up relative cell viability for the entries below, preserving their order.
1. COc1cc(N2CCC(N)CC2)ccc1Nc1ncc(Cl)c(-c2c[nH]c3ccccc23)n1
2. CNC(=O)c1ccccc1Nc1nc(Nc2ccc(N3CCOCC3)cc2OC)ncc1Cl
3. CC(C)n1c(/C=C/C(O)CC(O)CC(=O)O)c(-c2ccc(F)cc2)c2ccccc21 (stereo not drawn) [Fluvastatin Sodium]

[0.119, 0.155, 1.14]

---

Kindly state relative cell viability for each of the entries shown.
- Test system: Hep3B
- assay_method_text: relative cell viability (CellTiter-Glo), compound plus cabozantinib, relative to the cabozantinib arm (arm median 1.05; reference not stated) (fraction); higher = more viable cells (less growth inhibition)
- particulars: cabozantinib 2 µM; 4 days
Over roughly 1,900 compounds, “relative cell viability (CellTiter-Glo), compound plus cabozantinib, relative to the cabozantinib arm (arm median 1.05; reference not stated)” has its median near 1.1; the lowest 2% begin near 0.15. The full list was thinned out, with the lowest values kept by preference.
Answers are plain numbers.

Please state relative cell viability for every compound in the list that follows.
1. Cc1c(OCC(F)(F)F)ccnc1C[S+]([O-])c1nc2ccccc2[nH]1 (centres undefined)
2. Cc1ccc(C(=O)Nc2ccc(CN3CCN(C)CC3)c(C(F)(F)F)c2)cc1C#Cc1cnc2cccnn12
3. CC(C)(F)C[C@H](N[C@@H](c1ccc(-c2ccc(S(C)(=O)=O)cc2)cc1)C(F)(F)F)C(=O)NC1(C#N)CC1
4. CC(=O)C1=C(O)C=C2Oc3c(C(C)=O)c(O)c(C)c(O)c3C2(C)C1=O (single isomer, unassigned; (+)) [(+)-Usniacin]

1: 1.2; 2: 0.127; 3: 1.15; 4: 1.11

---

- Tested on: Hep3B
- assay_method_text: relative cell viability (CellTiter-Glo), compound plus cabozantinib, relative to the cabozantinib arm (arm median 1.05; reference not stated) (fraction); higher = more viable cells (less growth inhibition)
- particulars: cabozantinib 2 µM; 4 days
Where a name gives a salt, the structure may show the parent alone. Over roughly 1,900 compounds, “relative cell viability (CellTiter-Glo), compound plus cabozantinib, relative to the cabozantinib arm (arm median 1.05; reference not stated)” has its median near 1.1; the lowest 2% begin near 0.15. What follows is part of a selection rich in the lowest values, with near analogues and random picks from the rest.
I'd appreciate it if you could supply relative cell viability values for the items below.
One number for each entry.

Illustrative cases are given below, each with its answer.
CC(C)C(=O)Oc1ccc(CO)cc1[C@H](CCN(C(C)C)C(C)C)c1ccccc1 [Fesoterodine Fumarate] :: 1.1
CC(C=CC(=O)NO)=CC(C)C(=O)c1ccc(N(C)C)cc1 (centres undefined) :: 0.165
C[C@H]1CO[C@@H]2Cn3cc(C(=O)NCc4ccc(F)cc4F)c(=O)c(O)c3C(=O)N12 :: 1.1
CS(=O)(=O)N1CCc2c(-c3cnc(N)nc3)nc(N3CCOCC3)nc21 :: 0.228
Nc1nc(O)c2ncn(CCC(CO)CO)c2n1 :: 1.08

Can you give me relative cell viability for all of these, one by one?
1. Cc1onc(-c2ccccc2Cl)c1C(=O)N[C@@H]1C(=O)N2[C@@H]1SC(C)(C)[C@@H]2C(=O)O [Cloxacillin Sodium]
2. CCCc1ccc(OCC(=O)N(Cc2nc(-c3cccnc3)no2)C(C)C)cc1

1. 1.1
2. 1.16

Quick batch: relative cell viability for everything below.
1. CCCNC(=O)Nc1ccc(Oc2ncnc3cc(OC)c(OC)cc23)cc1Cl
2. COc1ccc(-c2nc(N3CCOCC3)c3sc(CN(C)c4ncc(C(=O)NO)cn4)cc3n2)cn1

1: 1.14; 2: 0.181

---

- System: Hep3B
- assay_method_text: relative cell viability (CellTiter-Glo), compound plus cabozantinib, relative to the cabozantinib arm (arm median 1.05; reference not stated) (fraction); higher = more viable cells (less growth inhibition)
- particulars: cabozantinib 2 µM; 4 days
Structures can show the parent of a compound that is named as a salt. The full ranking holds about 1,900 compounds; the median of “relative cell viability (CellTiter-Glo), compound plus cabozantinib, relative to the cabozantinib arm (arm median 1.05; reference not stated)” is about 1.1, and the lowest 2% start at about 0.15. Many of the other results were omitted from the sample, so the lowest values are more common in it than they were.
Assign relative cell viability to each entry below.
One number for each entry.

Cc1ccc(NC(=O)C2(c3ccc4c(c3)OC(F)(F)O4)CC2)nc1-c1cccc(C(=O)O)c1 :: 0.168

Please go through the list and note relative cell viability for each molecule.
1. CC[C@@]1(O)C(=O)OCc2c1cc1n(c2=O)Cc2cc3c(CN(C)C)c(O)ccc3nc2-1 [Topotecan HCl]
2. Cc1[nH]nc2ccc(-c3cncc(OC[C@@H](N)Cc4ccccc4)c3)cc12
3. O=C(Nc1ncc(SCCN2CCCC2)s1)[C@]1(c2ccc(S(=O)(=O)C3CC3)cc2)C[C@H]1C1CCCCC1
4. CCNC(=O)CCC/C=C\C[C@@H]1[C@@H](/C=C/[C@@H](O)CCc2ccccc2)[C@H](O)C[C@@H]1O
5. CN1CCN(CCOc2cc(OC3CCOCC3)c3c(Nc4c(Cl)ccc5c4OCO5)ncnc3c2)CC1
6. Cc1cccc(-c2[nH]c(CNc3ccccc3F)nc2-c2ccc3ncnn3c2)n1

[0.556, 0.11, 0.963, 1.16, 1.09, 1.1]

For every item below, please supply its relative cell viability.
1. CC(ONC(=O)c1cc(C(F)(F)F)cc(C(F)(F)F)c1)C(=O)Nc1ccc(Cl)cc1 (stereo not drawn)
2. C[C@H]1Oc2cc(cnc2N)-c2c(nn(C)c2C#N)CN(C)C(=O)c2ccc(F)cc21
3. COc1cc2c(cc1O)CC[C@@H]1[C@@H]2CC[C@]2(C)[C@@H](O)CC[C@@H]12
4. Cn1cc(/C=C/C(=O)c2cccc(F)c2)cc1/C=C/C(=O)NO

1.15
1.14
1.06
1.19

Could you report relative cell viability for every entry in the following list?
1. O=C(C=Cc1ccccc1)NC(NC(=S)Nc1ccc(Cl)cc1)C(Cl)(Cl)Cl (stereo not drawn)
2. CC[C@@]1(O)C(=O)OCc2c1cc1n(c2=O)Cc2cc3cc(O)ccc3nc2-1 [(S)-10-Hydroxycamptothecin]

1.14
0.137

---

- Test system: Hep3B
- assay_method_text: relative cell viability (CellTiter-Glo), compound plus cabozantinib, relative to the cabozantinib arm (arm median 1.05; reference not stated) (fraction); higher = more viable cells (less growth inhibition)
- particulars: cabozantinib 2 µM; 4 days
Where a name gives a salt, the structure may show the parent alone. Whole data set: some 1,900 compounds, median “relative cell viability (CellTiter-Glo), compound plus cabozantinib, relative to the cabozantinib arm (arm median 1.05; reference not stated)” near 1.1, cut for the lowest 2% near 0.15. What follows is part of a selection rich in the lowest values, with near analogues and random picks from the rest.
Would you mind telling me the reported relative cell viability of each entry?
Give bare numbers.

Field: example entries. Status: answers known.
CC1(C)S[C@@H]2[C@H](NC(=O)[C@H](N)c3ccccc3)C(=O)N2[C@H]1C(=O)O [Ampicillin Trihydrate] :: 1.08
O=C(O)CC1CC(c2ccccc2)=NO1 (stereo not drawn) :: 1.1
CCCCNc1ncc(C(=O)NCc2ccc(-n3ccnc3)cc2)c(NC2CCC(O)CC2)n1 (stereo not drawn) :: 0.996

// for each compound below, give its relative cell viability
1. CCCCCCCCCCCCCCCCO [1-Hexadecanol]
2. O=C(NOCC(O)CO)c1cc(Br)c(F)c(F)c1Nc1ccc(I)cc1F (stereo not drawn)
3. CC(C(=O)O)c1ccc2c(c1)Cc1cccnc1O2 (stereo not drawn) [Pranoprofen]
4. Oc1cc(O)c(Cl)cn1 [Gimeracil]
5. CSc1cccc(Nc2ncc3cc(-c4c(Cl)cccc4Cl)c(=O)n(C)c3n2)c1
6. C#C[C@]1(O)CC[C@H]2[C@@H]3CCC4=CC(=O)CC[C@@H]4[C@H]3CC[C@@]21C [Norethindrone]
7. O=C(NOC[C@H](O)CO)c1ccc(F)c(F)c1Nc1ccc(I)cc1F

1.14
0.87
1
1
0.748
1.06
0.183

Provide reported relative cell viability for each item, in the same order as listed.
1. Cn1cnc2c(F)c(Nc3ccc(Br)cc3F)c(C(=O)NOCCO)cc21
2. CC1CC(OC(=O)C(O)c2ccccc2)CC(C)(C)C1 (stereo not drawn) [Cyclandelate]
3. COc1ccc(C[C@H](NC(=O)[C@H](C)NC(=O)CN2CCOCC2)C(=O)N[C@@H](Cc2ccccc2)C(=O)[C@@]2(C)CO2)cc1
4. Fc1cc(-c2cccc3ncc(-c4cnn(C5CCNCC5)c4)nc23)cc(F)c1CN1CCOCC1
5. O=C1NCC2(CCN(CCc3ccccc3)CC2)O1 [Fenspiride HCl]

1. 0.634
2. 1.07
3. 0.23
4. 1.11
5. 1.16

I need relative cell viability for every entry listed below, if you could help.
1. COc1cccc2c1C(=O)c1c(O)c3c(c(O)c1C2=O)C[C@@](O)(C(=O)CO)C[C@@H]3O[C@H]1C[C@H](N)[C@@H](O)[C@H](C)O1 [Epirubicin HCl]
2. COC(=O)N[C@H](C(=O)N[C@@H](Cc1ccccc1)[C@@H](O)CN(Cc1ccc(-c2ccccn2)cc1)NC(=O)[C@@H](NC(=O)OC)C(C)(C)C)C(C)(C)C [Atazanavir Sulfate]
3. O=c1cc(CN2CCOCC2)occ1OCCCCCSc1ccnc2cc(C(F)(F)F)ccc12
4. COc1cccc2c1C(=O)c1c(O)c3c(c(O)c1C2=O)C[C@@](O)(C(=O)CO)C[C@@H]3O[C@H]1C[C@H](N)[C@H](O[C@@H]2CCCCO2)[C@H](C)O1 [Pirarubicin]

0.045
0.969
1.13
0.178

# batch: return relative cell viability for each of the 7 compounds below
1. COc1cccc2c1C(=O)c1c(O)c3c(c(O)c1C2=O)C[C@@](O)(C(C)=O)C[C@@H]3O[C@H]1C[C@H](N)[C@H](O)[C@H](C)O1 [Daunorubicin HCl]
2. C[C@@H](O)[C@H]1C(=O)N2C(C(=O)O)=C(S[C@@H]3CN[C@H](C(=O)N(C)C)C3)[C@H](C)[C@H]12 [Meropenem]
3. COc1ccc(C[C@H](N)C(=O)N[C@H]2[C@@H](O)[C@H](n3cnc4c(N(C)C)ncnc43)O[C@@H]2CO)cc1 [Puromycin 2HCl]
4. O=C(NC[C@H](O)CO)c1ccncc1Nc1ccc(I)cc1F
5. COc1cc([C@@H]2c3cc4c(cc3[C@@H](O[C@@H]3O[C@@H]5CO[C@@H](C)O[C@H]5[C@H](O)[C@H]3O)[C@H]3COC(=O)[C@H]23)OCO4)cc(OC)c1O [Etoposide]
6. CNc1ncnc2c1ncn2[C@@H]1O[C@H](CO)[C@@H](O)[C@H]1O [N6-methyladenosine (m6A)]
7. C#C[C@]1(OC(C)=O)CC[C@H]2[C@@H]3CCC4=C[C@@H](OC(C)=O)CC[C@@H]4[C@H]3CC[C@@]21C [Ethynodiol diacetate]

1: 0.0514; 2: 1.17; 3: 0.0197; 4: 0.201; 5: 0.923; 6: 1.21; 7: 1.12
